experiment: chemical genetic growth profiling, strain panel (AID 1159580);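 further: tested at 20 µM; growth read once vehicle control cultures reached saturation at 30 °C; 1 = growth at the plate median or of vehicle wells; lower values mean less growth of the strain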; settings: S. cerevisiae deletion strains, growth OD, locus YNL067W, strain RPL9B, stronger effect = lower value
Out of some 5,500 compounds screened, about 2,000 (36%) were called active. Inconclusive results (about 18%) are left out. The list shows a part of the results.
Record form. Attribute: normalized growth. Fill in for each entry.
Respond numerically, and do not add a unit to the figure.

// lookup normalized growth for `O=C(CCCN1CCC2(CC1)C(=O)NCN2c1ccccc1)c1ccc(F)cc1`
0.985

One more molecule: `CN(C)C(=O)C(CCN1CCC(O)(c2ccc(Cl)cc2)CC1)(c1ccccc1)c1ccccc1`
1.01

Input `COc1cccc2c1CCC1=CC(=O)CC[C@@]12C`
0.984

Now consider CC1(C)C(O)CC(=O)C2(C)C1CC(O)C1(C)C2CCC2(C)C(c3ccoc3)OC(=O)C3OC321 (stereo not given) .
1.04

Now consider `C[C@]12CCC(=O)C=C1CCc1ccc(O)cc12` .
0.999

Input `CN(C)CC[C@H](c1ccc(Cl)cc1)c1ccccn1`
0.999

Can you handle NC[C@H]1O[C@H](OC2[C@@H](N)C[C@@H](N)[C@H](O[C@H]3O[C@H](CO)[C@@H](O)[C@H](N)[C@H]3O)[C@H]2O)[C@H](O)[C@@H](O)[C@@H]1O (stereo not given in full) next?
0.997

Repeat with `NCCCN`
1.01

Try the molecule `COC(=O)[C@H]1[C@H]2C[C@H]3c4[nH]c5cc(OC)ccc5c4CCN3C[C@H]2C[C@@H](OC(=O)c2cc(OC)c(OC)c(OC)c2)[C@@H]1OC`
0.961

What do you have for C/C=C/CC(C)C(O)C1C(=O)NC(CC)C(=O)N(C)CC(=O)N(C)C(CC(C)C)C(=O)NC(C(C)C)C(=O)N(C)C(CC(C)C)C(=O)NC(C)C(=O)NC(C)C(=O)N(C)C(CC(C)C)C(=O)N(C)C(CC(C)C)C(=O)N(C)C(C(C)C)C(=O)N1C (stereo not given) ?
0.97

meta.source: PubChem BioAssay AID1159580
